Biological target: PI3K delta (Homo sapiens, UniProt O00329)
Construct: for the full-length p110-d subunit are generated and fused by overlapping PCR; His tag (C); made in house; host or cells: baculovirus BV1060; Tn5 (Trichoplusia ni) or TiniPro insect cells
Sequence (O00329 with tags, fused parts or gaps limits assumed): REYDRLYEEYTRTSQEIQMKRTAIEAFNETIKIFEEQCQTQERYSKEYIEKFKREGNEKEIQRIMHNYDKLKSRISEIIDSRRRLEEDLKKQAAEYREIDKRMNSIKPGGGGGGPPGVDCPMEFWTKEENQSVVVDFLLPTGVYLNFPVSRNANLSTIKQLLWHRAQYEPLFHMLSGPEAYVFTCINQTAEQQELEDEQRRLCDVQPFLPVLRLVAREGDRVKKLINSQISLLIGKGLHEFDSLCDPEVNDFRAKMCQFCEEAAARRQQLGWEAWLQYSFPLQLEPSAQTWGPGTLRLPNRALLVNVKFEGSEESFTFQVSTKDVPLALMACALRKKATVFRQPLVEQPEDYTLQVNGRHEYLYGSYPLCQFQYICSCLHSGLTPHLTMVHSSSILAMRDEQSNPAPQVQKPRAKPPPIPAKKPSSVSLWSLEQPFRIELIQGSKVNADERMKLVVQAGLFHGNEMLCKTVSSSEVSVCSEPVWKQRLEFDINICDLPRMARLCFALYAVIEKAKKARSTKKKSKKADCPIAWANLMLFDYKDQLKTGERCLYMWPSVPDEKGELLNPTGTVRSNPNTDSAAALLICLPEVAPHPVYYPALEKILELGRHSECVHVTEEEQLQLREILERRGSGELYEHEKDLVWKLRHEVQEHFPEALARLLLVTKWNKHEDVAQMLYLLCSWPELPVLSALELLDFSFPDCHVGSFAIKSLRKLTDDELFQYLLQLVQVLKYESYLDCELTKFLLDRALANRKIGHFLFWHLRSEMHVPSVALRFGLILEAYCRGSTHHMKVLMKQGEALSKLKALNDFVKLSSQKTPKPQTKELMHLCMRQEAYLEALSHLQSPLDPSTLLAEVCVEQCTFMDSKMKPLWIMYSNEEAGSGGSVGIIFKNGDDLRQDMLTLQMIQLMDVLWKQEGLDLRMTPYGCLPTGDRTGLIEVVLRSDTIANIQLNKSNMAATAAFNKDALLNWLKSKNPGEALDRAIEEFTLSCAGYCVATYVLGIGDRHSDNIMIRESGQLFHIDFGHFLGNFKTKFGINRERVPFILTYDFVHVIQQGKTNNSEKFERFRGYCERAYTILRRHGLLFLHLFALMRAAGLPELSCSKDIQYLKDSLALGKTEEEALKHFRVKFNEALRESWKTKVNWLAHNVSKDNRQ
Test: PI3K delta kinase assay (Kinase-Glo luminescence)
Format: biochemical
Details: read-out: EPK_PI3Kdelta/IC50
pIC50: −log10 of the molar value.
reported.property: pIC50

compound	measurement.target	recorded.value
COC1CCN(c2ccc(-n3c(=O)n(C)c4cnc5ccc(-c6cncc(C(C)(C)O)c6)cc5c43)c(C)n2)C1 (stereo not shown)	PI3K delta (Homo sapiens, UniProt O00329)	7.23
Cc1cc(F)ncc1-n1c(=O)n(C)c2cnc3ccc(-c4cnc5c(ccn5C)c4)cc3c21	PI3K delta (Homo sapiens, UniProt O00329)	7.41
CNc1ncc(-c2ccc3ncc4c(c3c2)n(-c2ccc(C(C)(C)O)nc2C)c(=O)n4C)cn1	PI3K delta (Homo sapiens, UniProt O00329)	7.96
COc1cc(-c2ccc3ncc4c(c3c2)n(-c2ccc(N)nc2C)c(=O)n4C)cnc1CO	PI3K delta (Homo sapiens, UniProt O00329)	6.93
CNc1ncc(-c2ccc3ncc4c(c3c2)n(-c2ccc(C(C)(C)O)nc2C)c(=O)n4C)cc1F	PI3K delta (Homo sapiens, UniProt O00329)	8.52
CNc1ncc(-c2ccc3ncc4c(c3c2)n(-c2ccc(OCCOC)nc2C)c(=O)n4C)cn1	PI3K delta (Homo sapiens, UniProt O00329)	7.22
CNc1cc(-c2ccc3ncc4c(c3c2)n(-c2cccnc2C)c(=O)n4C)cnc1C	PI3K delta (Homo sapiens, UniProt O00329)	7.51
Cc1nc(C(C)(C)O)ccc1-n1c(=O)n(C)c2cnc3ccc(-c4cncc(C5(C#N)CCC5)c4)cc3c21	PI3K delta (Homo sapiens, UniProt O00329)	8.15

I = COCc1cc(-c2ccc3ncc4c(c3c2)n(-c2ccc(C(F)(F)F)nc2C)c(=O)n4C)cnc1N
II = COCCN(C)c1ccc(-n2c(=O)n(C)c3cnc4ccc(-c5cncc(N)c5)cc4c32)c(C)n1
Could you point out whether the larger pIC50 belongs to I or to II ? Your choice should be expressed through its label.
I
